// provenance: the CheMixHub viscosity set

Conditions: 303.15 K; 101 kPa
# if measured viscosity < 10 mPa·s: Met  # else: Not met

C1CC[C@H]2CCCC[C@@H]2C1	Met
CCCCn1cc[n+](C)c1.[Cl][Fe-]([Cl])([Cl])[Cl]	Not met
C[C@H]1CCCC[C@H]1O	Not met

Could you please tell me whether viscosity recorded for `CCCC[n+]1ccccc1.O=S(=O)([N-]S(=O)(=O)C(F)(F)F)C(F)(F)F` is less than 10 mPa·s? Not met

* * *

Details: 298.15 K; 101.33 kPa
ENDPOINT_LABEL: viscosity (mPa·s)
Number in mPa·s, nothing else.

Need viscosity, item `N#Cc1ccccc1` 1.282

viscosity lookup needed for `CCCOCCO` , thanks. 2.351

Look up viscosity: `CCCCOCCCOCCCO` 4.503

I have this molecule here, `CCOCCOCCOCCO` , and I need its recorded viscosity. 7.042
